assay.system: GABA-A receptor; alpha-1/beta-3/gamma-2 (Homo sapiens) (UniProt P14867+P18507+P28472)
protocol.description: Effect on [3H]muscimol binding to full length human N-terminal flag-tagged alpha1-beta3-C-terminal 1D4-tagged gamma2 GABAA receptor extracted from Tetracycline-resistant HEK293 cell membrane assessed as fold change in [3H]muscimol binding at 300 uM incubated for 30 mins
Assay type: cell membranes
test.conditions: filed as modulator
Threshold rule: fold change (FC) greater than or equal to 0.1 is T; below that, F.

CN1C(=O)NC(=O)[C@]2(CCc3ccccc32)C1=O    T
CN=C1NC(=O)C2(CCc3ccccc32)C(=O)N1 (stereo not given)    F
CN1C(=O)NC(=O)C2(CCCc3ccccc32)C1=O (stereo in doubt; 2h-2)    F
O=C1NC(=S)NC(=O)C12CCc1ccccc12    F
CCC1(c2ccccc2)C(=O)NC(=O)NC1=O    T

Challenge: Is fold change (FC) at least 0.1? Consider O=C1NC(=O)C2(CCCCc3ccccc32)C(=O)N1
Response given: T

Challenge: Entry CN1C(=O)NC(=O)C2(CCCCc3ccccc32)C1=O (stereo in doubt; 3h-1) please
Response given: T

Challenge: Now consider CN1C(=O)NC(=O)C2(CCc3ccc(Br)cc32)C1=O (stereo in doubt; 6h-2) .
Response given: T

Challenge: Would you kindly repeat that for CCN1C(=O)NC(=O)C2(CCc3ccccc32)C1=O (stereo in doubt; 1i-2) ?
Response given: T

###

assay.system: GABA-A receptor; alpha-1/beta-3/gamma-2 (Homo sapiens, UniProt P14867+P18507+P28472)
Sequence (P14867 whole entry): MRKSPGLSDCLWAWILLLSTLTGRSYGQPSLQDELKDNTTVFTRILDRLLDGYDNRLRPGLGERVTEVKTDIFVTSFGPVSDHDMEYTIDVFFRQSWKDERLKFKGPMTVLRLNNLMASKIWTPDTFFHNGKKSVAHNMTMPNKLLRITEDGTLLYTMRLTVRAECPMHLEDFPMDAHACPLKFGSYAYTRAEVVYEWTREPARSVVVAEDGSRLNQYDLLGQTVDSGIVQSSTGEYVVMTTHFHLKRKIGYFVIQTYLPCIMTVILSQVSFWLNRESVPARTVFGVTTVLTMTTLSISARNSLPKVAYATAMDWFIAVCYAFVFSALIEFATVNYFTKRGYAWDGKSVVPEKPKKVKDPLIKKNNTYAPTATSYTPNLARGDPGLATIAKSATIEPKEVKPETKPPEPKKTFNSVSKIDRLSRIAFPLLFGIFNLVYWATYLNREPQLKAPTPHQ
Sequence (P18507 whole entry): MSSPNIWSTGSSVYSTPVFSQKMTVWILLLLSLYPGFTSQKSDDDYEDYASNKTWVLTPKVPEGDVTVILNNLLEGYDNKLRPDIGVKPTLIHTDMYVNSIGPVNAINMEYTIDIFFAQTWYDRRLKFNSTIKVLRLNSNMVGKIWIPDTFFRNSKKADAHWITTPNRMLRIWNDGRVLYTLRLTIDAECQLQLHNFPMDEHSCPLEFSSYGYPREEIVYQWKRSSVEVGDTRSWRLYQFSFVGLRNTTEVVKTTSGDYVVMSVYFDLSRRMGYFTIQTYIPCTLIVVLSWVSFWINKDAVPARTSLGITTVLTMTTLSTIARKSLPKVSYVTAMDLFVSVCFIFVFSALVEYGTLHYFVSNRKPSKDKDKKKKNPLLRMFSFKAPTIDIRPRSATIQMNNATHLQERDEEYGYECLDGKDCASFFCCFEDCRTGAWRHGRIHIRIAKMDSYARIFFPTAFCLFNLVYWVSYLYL
Sequence (P28472 whole entry): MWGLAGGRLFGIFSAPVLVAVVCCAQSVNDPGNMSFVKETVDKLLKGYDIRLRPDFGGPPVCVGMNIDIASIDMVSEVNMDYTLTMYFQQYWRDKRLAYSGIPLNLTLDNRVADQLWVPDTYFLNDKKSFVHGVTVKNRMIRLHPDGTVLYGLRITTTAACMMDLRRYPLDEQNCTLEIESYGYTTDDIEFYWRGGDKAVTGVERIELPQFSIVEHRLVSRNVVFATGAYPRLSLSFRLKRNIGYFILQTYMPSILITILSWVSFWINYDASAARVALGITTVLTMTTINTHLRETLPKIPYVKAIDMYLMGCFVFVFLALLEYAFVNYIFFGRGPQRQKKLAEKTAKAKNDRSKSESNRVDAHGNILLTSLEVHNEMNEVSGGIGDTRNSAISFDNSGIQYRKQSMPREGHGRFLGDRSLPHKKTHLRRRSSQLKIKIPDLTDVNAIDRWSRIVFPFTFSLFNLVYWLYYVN
protocol.description: Inhibition of R-mTFD-MPAB-induced [3H]muscimol binding to full length human N-terminal flag-tagged alpha1-beta3-C-terminal 1D4-tagged gamma2 GABAA receptor extracted from Tetracycline-resistant HEK293 cell membrane incubated for 30 mins
Format: cell membranes
experimental.endpoint: pIC50
Answer as the number alone; pIC50 is minus log10 of concentration in mol/L.

These recorded examples may help you get a feel for the data.
O=C1NC(=O)C2(CCc3ccccc32)C(=O)N1    4.74
O=C1NC(=O)C2(CC(O)c3ccccc32)C(=O)N1 (stereo in doubt; 1t-2)    3.95

Challenge: Dear colleague, I am looking for the recorded pIC50 of the following compound: CN=C1NC(=O)C2(CCc3ccccc32)C(=O)N1 (stereo not drawn)
Response given: 4.00

###

assay.system: GABA-A receptor; alpha-1/beta-3/gamma-2 (Homo sapiens) (UniProt P14867+P18507+P28472)
protocol.description: Effect on [3H]muscimol binding to full length human N-terminal flag-tagged alpha1-beta3-C-terminal 1D4-tagged gamma2 GABAA receptor extracted from Tetracycline-resistant HEK293 cell membrane assessed as fold change in [3H]muscimol binding at 300 uM incubated for 30 mins
Assay type: cell membranes
test.conditions: filed as modulator
Decision: fold change (FC) compared against 0.1; not below it gives Met, below it gives Not met.

# count of solved cases: 4
Cc1ccc2c(c1)C1(CC2)C(=O)NC(=O)N(C)C1=O (stereo in doubt; 4h-2)    Met
Cc1ccc2c(c1)C1(CC2)C(=O)NC(=O)N(C)C1=O (stereo in doubt; 4h-1)    Met
CC1Cc2ccccc2C12C(=O)NC(=O)NC2=O (stereo in doubt; 10g-2)    Met
O=C1NC(=S)NC(=O)C12CCc1ccc(Br)cc12    Met

Challenge: Quick check: does O=C1NC(=O)C2(CCc3ccccc32)C(=O)N1 have fold change (FC) greater than or equal to 0.1?
Response given: Not met

Challenge: What do you have for COc1ccc2c(c1)C1(CC2)C(=O)NC(=O)NC1=O ?
Response given: Not met

###

assay.system: GABA-A receptor; alpha-1/beta-3/gamma-2 (Homo sapiens) (UniProt P14867+P18507+P28472)
protocol.description: Inhibition of [3H]flunitrazepam binding to full length human N-terminal flag-tagged alpha1-beta3-C-terminal 1D4-tagged gamma2 GABAA receptor extracted from Tetracycline-resistant HEK293 cell membrane assessed as reduction in [3H]flunitrazepam binding at 300 uM incubated for 30 mins relative to control
Type: cell membranes
experimental.endpoint: inhibition (%)
Give your result in % as a bare value.

CN1C(=O)NC(=O)C2(CCc3ccc(Br)cc32)C1=O (stereo in doubt; 6h-1)    12
Cc1ccc2c(c1)C1(CC2)C(=O)NC(=O)N(C)C1=O (stereo in doubt; 4h-2)    12

Challenge: Form field: reported inhibition of O=C1NC(=O)C2(CCCCc3ccccc32)C(=O)N1
Response given: 12

Challenge: Further, for CC(C)c1ccc2c(c1)C1(CC2)C(=O)NC(=O)N(C)C1=O (stereo in doubt; 5h-2) ?
Response given: 12

Challenge: How about COc1ccc2c(c1)C1(CC2)C(=O)NC(=O)N(C)C1=O (stereo in doubt; 7h-2) ?
Response given: 12

Challenge: Please give the result for CC(C)c1ccc2c(c1)C1(CC2)C(=O)NC(=O)N(C)C1=O (stereo in doubt; 5h-1) too.
Response given: 12

Challenge: Input CN1C(=O)NC(=O)[C@@]2(CCc3ccccc32)C1=O
Response given: 12

Challenge: For CN1C(=O)NC(=O)[C@]2(CCc3ccccc32)C1=O then?
Response given: 12

Challenge: Queued: O=C1NC(=O)C2(CCc3ccccc32)C(=O)N1
Response given: 12

Challenge: Same read-out for CN1C(=O)NC(=O)C2(CCc3ccc(Br)cc32)C1=O (stereo in doubt; 6h-2) ?
Response given: 12

###

assay.system: GABA-A receptor; alpha-1/beta-3/gamma-2 (Homo sapiens) (UniProt P14867+P18507+P28472)
protocol.description: Inhibition of R-mTFD-MPAB-induced [3H]muscimol binding to full length human N-terminal flag-tagged alpha1-beta3-C-terminal 1D4-tagged gamma2 GABAA receptor extracted from Tetracycline-resistant HEK293 cell membrane at 300 uM incubated for 30 mins relative to control
Type: cell membranes
Form field: inhibition (one value per entry).

Examples with answers:
CC(C)c1ccc2c(c1)C1(CC2)C(=O)NC(=O)NC1=O    > 40%
COc1ccc2c(c1)C1(CC2)C(=O)NC(=O)NC1=O    > 40%
Cc1ccc2c(c1)C1(CC2)C(=O)NC(=S)NC1=O    > 40%
O=C1NC(=O)C2(CCc3ccc(Br)cc32)C(=O)N1    > 40%
O=C1NC(=O)C2(CCc3ccc(F)cc32)C(=O)N1    > 40%
COc1ccc2c(c1)C1(CC2)C(=O)NC(=S)NC1=O    > 40%

Challenge: For the molecule shown here, Cc1ccc2c(c1)C1(CC2)C(=O)NC(=O)NC1=O , give the reported inhibition.
Response given: > 40%

Challenge: Try the molecule CCC1(c2ccccc2)C(=O)NC(=O)NC1=O
Response given: 12%

Challenge: Another molecule to check: N=C1NC(=O)C2(CCc3ccc(Br)cc32)C(=O)N1 (configuration not stated)
Response given: > 40%

Challenge: What do you have for N=C1NC(=O)C2(CCc3ccc(F)cc32)C(=O)N1 (configuration not stated) ?
Response given: > 40%

Challenge: Ok, now CC(C)c1ccc2c(c1)C1(CC2)C(=O)NC(=S)NC1=O
Response given: > 40%

Challenge: Item: N=C1NC(=O)C2(CCc3ccc(Cl)cc32)C(=O)N1 (configuration not stated)
Response given: > 40%

Challenge: # iterate: O=C1NC(=O)C2(CC(O)c3ccccc32)C(=O)N1 (stereo in doubt; 1t-2)
Response given: 45%

Challenge: Input Cc1ccc2c(c1)C1(CC2)C(=O)NC(=N)NC1=O (configuration not stated)
Response given: > 40%

Challenge: Then O=C1NC(=O)C2(CCc3ccc(Cl)cc32)C(=O)N1 ?
Response given: > 40%

Challenge: And then NC1CC2(C(=O)NC(=O)NC2=O)c2ccccc21 (racemic) , what is it?
Response given: 19%

Challenge: Now the molecule O=C1NC(=S)NC(=O)C12CCc1ccc(Br)cc12
Response given: > 40%

Taken from ChEMBL document CHEMBL6134857.
